The measured values listed here are drawn from ChEMBL document CHEMBL1944607.

- target-of-assay: Transient receptor potential cation channel subfamily A member 1 (Homo sapiens)
- Sequence (O75762 whole entry): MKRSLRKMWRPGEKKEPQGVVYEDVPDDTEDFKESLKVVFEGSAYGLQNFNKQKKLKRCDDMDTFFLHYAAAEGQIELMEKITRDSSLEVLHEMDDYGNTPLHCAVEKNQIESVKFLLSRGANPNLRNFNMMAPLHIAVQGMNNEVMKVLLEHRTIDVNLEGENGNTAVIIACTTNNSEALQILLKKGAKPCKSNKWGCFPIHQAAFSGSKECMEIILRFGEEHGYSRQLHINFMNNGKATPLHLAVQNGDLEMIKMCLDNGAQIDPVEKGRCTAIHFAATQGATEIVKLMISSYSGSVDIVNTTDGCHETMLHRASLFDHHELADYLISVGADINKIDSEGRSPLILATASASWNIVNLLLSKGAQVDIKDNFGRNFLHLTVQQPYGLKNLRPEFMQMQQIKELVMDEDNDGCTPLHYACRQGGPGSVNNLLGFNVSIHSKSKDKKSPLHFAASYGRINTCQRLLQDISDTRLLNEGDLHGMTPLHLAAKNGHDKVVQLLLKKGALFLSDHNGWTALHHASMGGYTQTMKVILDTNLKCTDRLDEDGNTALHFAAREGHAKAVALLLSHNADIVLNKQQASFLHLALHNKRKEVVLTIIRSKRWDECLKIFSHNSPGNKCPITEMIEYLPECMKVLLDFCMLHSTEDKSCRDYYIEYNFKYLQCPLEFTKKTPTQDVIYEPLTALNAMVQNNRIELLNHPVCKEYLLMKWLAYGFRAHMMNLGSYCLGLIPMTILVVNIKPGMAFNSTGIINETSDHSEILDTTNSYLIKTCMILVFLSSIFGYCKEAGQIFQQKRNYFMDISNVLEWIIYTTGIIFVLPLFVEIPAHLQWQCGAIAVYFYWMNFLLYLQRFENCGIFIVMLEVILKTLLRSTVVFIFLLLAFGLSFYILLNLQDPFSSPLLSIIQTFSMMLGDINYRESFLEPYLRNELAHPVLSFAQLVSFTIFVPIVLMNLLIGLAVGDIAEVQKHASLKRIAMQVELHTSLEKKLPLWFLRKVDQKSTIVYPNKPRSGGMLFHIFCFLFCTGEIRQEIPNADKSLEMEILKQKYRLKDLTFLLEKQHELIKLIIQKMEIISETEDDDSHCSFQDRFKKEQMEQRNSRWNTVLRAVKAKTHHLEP
- assay-name: Antagonist activity at human TRPA1 expressed in human IMR90 cells assessed as inhibition of acrolein-induced calcium influx at 30 uM after 40 mins by fluorescence analysis
- Format: functional, cell-based
- conditions-used: IMR-90
assay-endpoint: inhibition

Known results for compounds:
{"compound-structure-string": "Cn1c(=O)c2c(ccn2CC(=O)Nc2ccc(F)cc2F)n(C)c1=O", "assay-endpoint": "inhibition", "measured-value": "< 50%"}
{"compound-structure-string": "Cn1c(=O)c2c(ccn2CC(=O)Nc2nc(-c3ccc(F)cc3)cs2)n(C)c1=O", "assay-endpoint": "inhibition", "measured-value": "82.8%"}
{"compound-structure-string": "CCN(CC)S(=O)(=O)c1ccc(NC(=O)Cn2ccc3c2c(=O)n(C)c(=O)n3C)cc1", "assay-endpoint": "inhibition", "measured-value": "< 50%"}
{"compound-structure-string": "Cn1c(=O)c2c(ccn2CC(=O)Nc2cccc(I)c2)n(C)c1=O", "assay-endpoint": "inhibition", "measured-value": "< 50%"}

Determine its reported inhibition: "Cn1c(=O)c2c(ccn2CC(=O)Nc2nc(-c3ccccc3)cs2)n(C)c1=O" < 50%
